- Assay system: human GLP1-R (Homo sapiens)
- Sequence (P43220 24-463): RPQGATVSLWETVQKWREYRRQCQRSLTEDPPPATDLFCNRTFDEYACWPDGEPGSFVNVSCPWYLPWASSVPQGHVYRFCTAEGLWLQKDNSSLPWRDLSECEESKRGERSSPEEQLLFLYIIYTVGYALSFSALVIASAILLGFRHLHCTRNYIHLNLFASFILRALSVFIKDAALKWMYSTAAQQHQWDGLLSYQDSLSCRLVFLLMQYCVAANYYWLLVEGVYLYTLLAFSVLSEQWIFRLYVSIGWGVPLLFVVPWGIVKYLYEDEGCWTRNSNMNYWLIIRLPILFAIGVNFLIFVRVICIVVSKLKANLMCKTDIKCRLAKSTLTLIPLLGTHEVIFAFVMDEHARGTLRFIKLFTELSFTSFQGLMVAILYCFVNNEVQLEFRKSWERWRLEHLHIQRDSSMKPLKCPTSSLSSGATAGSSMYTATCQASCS
- Assay info: GLP1-R internalization assay in HEK293 cells
- Format: cell-based
- Conditions: normalized to maximum concentration of GLP-1 (100%)
Starred links: 1 amine or outer side, 2 acyl side, 3 side chain; linkers in the order of their positions; H or OH if unused. Non-standard residues stand in square brackets, D forms with d. Groups on a side chain read outwards from the residue. No end group written: not given here. *: point of attachment. C20 diacid = O=C(O)CCCCCCCCCCCCCCCCCCC(=O)*; C18 diacid = O=C(O)CCCCCCCCCCCCCCCCC(=O)*; γGlu = O=C(O)[C@H](CCC(=O)[*:2])N[*:1]; 4Pal = N[C@@H](Cc1ccncc1)C(=O)O; αMeL = CC(C)C[C@](C)(N)C(=O)O; Orn = NCCC[C@H](N)C(=O)O; AEEA = NCCOCCOCC(=O)O; Aib = CC(C)(N)C(=O)O
Quantity measured: Internalization % TOP (%)
Return type: number; implicit unit %.

{"Substance": "H-Y[Aib]QGTFTSDFS[Orn][αMeL]LDKK([AEEA-γGlu-C18 diacid])AQ[Aib]AFIEYLLE[dA]GPSSGAPPPSG[4Pal]-NH2 [Example 211]", "Assay system": "human GLP1-R (Homo sapiens)", "Internalization % TOP / %": 26.9}
{"Substance": "H-Y[Aib]QGTFTSDFSK[αMeL]LDKK([AEEA-γGlu-C20 diacid])AQQAFIEYLLA[Aib]GPSSGEPPPSEG-NH2 [Example 19]", "Assay system": "human GLP1-R (Homo sapiens)", "Internalization % TOP / %": 72.6}
{"Substance": "H-Y[Aib]QGTFTSD[4Pal]S[Orn][αMeL]LDKK([AEEA-γGlu-C18 diacid])AQ[Aib]AFIEWLLEGGPSSGEPPPSGE-NH2 [Example 115]", "Assay system": "human GLP1-R (Homo sapiens)", "Internalization % TOP / %": 56.5}

### Prompt Given the entry H-Y[Aib]QGTFTSD[4Pal]SR[αMeL]LDKK([AEEA-γGlu-C18 diacid])AQ[Aib]AFIEYLIE[Aib]GESSGAPPPSGS-NH2 [Example 187] , report its measured Internalization % TOP.
### Response 57

### Prompt Given the entry Y[Aib]QGTFTSDFS[Orn][αMeL]LDKK([AEEA-AEEA-γGlu-C18 diacid])AQ[Aib]AFIEYLLE[dA]GPSSGHPPPSGH-NH2 [Example 255] , report its measured Internalization % TOP.
### Response 51.8

### Prompt Given the entry H-Y[Aib]QGTFTSDFSK[αMeL]LDKK([AEEA-γGlu-C20 diacid])AQQAFIEYLLA[Aib]GPSSGAPPPSEG-NH2 [Example 30] , report its measured Internalization % TOP.
### Response 72.8

### Prompt Given the entry H-Y[Aib]QGTFTSDFS[Orn][αMeL]LDKK([AEEA-AEEA-γGlu-C20 diacid])AQ[Aib]AFIEYLLE[Aib]GPSSGAPPPGEG-NH2 [Example 70] , report its measured Internalization % TOP.
### Response 61.3

---

# pEC50 annotations
- Assay system: hGIPR (Homo sapiens)
- Sequence (P48546 22-466): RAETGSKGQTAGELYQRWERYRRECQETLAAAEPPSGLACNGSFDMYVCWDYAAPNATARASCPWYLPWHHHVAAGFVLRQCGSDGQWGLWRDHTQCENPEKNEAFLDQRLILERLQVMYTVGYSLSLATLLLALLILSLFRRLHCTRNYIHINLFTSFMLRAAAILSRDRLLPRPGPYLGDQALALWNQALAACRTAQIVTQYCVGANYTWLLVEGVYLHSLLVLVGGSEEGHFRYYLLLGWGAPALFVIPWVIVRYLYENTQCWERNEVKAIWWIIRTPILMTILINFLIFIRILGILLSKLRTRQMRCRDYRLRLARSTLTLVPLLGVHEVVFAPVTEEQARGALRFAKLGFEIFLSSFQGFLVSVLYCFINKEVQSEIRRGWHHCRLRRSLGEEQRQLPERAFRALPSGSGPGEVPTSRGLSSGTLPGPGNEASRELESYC
- Assay info: Functional cAMP activation in the presence of 0.1% casein (no HSA);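 as to Relative cAMP EC50, hGIPR: intracellular cAMP rise after 30 min at 37 °C read by HTRF against a standard curve, scaled between buffer alone (0%) and top control ligand concentration (100%), four-parameter fit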
- Format: cell-based
- Conditions: in the presence of 0.1% casein (no HSA); geometric mean; read-out: Relative cAMP EC50, hGIPR
Starred links: 1 amine or outer side, 2 acyl side, 3 side chain; linkers in the order of their positions; H or OH if unused. Non-standard residues stand in square brackets, D forms with d. Groups on a side chain read outwards from the residue. *: point of attachment. C20 diacid = O=C(O)CCCCCCCCCCCCCCCCCCC(=O)*; C18 diacid = O=C(O)CCCCCCCCCCCCCCCCC(=O)*; αMePhe(2-F) = C[C@](N)(Cc1ccccc1F)C(=O)O; γGlu = O=C(O)[C@H](CCC(=O)[*:2])N[*:1]; αMe4Pal = C[C@](N)(Cc1ccncc1)C(=O)O; αMeY = C[C@](N)(Cc1ccc(O)cc1)C(=O)O; 4Pal = N[C@@H](Cc1ccncc1)C(=O)O; αMeL = CC(C)C[C@](C)(N)C(=O)O; Orn = NCCC[C@H](N)C(=O)O; AEEA = NCCOCCOCC(=O)O; Aib = CC(C)(N)C(=O)O
Scale for pEC50: -log10 of concentration given in mol/L; no unit attached.

{"Substance": "H-Y[Aib]QGTFTSD[4Pal]SR[αMeL]LDKK([AEEA-γGlu-C18 diacid])AQ[Aib]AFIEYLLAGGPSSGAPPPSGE-NH2 [Example 113]", "pEC50": 9.62}

### Prompt Given the entry H-Y[Aib]QGTFTSD[4Pal]SQ[αMeL]LDKK([AEEA-γGlu-C18 diacid])AQ[αMe4Pal]QFIE[αMeY]LIEGGPSSGAPPPSGS-NH2 [Example 855] , report its measured pEC50.
### Response 9.57

### Prompt Given the entry H-Y[Aib]QGTFTSD[4Pal]S[Orn][αMeL]LD[Orn]K([γGlu-γGlu-C18 diacid])AQ[αMe4Pal]AFIE[αMeY]LIEGGPSSGAPPPSGS-NH2 [Example 1013] , report its measured pEC50.
### Response 9.68

### Prompt Given the entry H-Y[Aib]QGT[αMePhe(2-F)]TSDYSILLDKAAQK([AEEA-γGlu-C20 diacid])[Orn]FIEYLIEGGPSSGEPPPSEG-NH2 [Example 306] , report its measured pEC50.
### Response 9.85

### Prompt Given the entry H-Y[Aib]QGTFTSD[4Pal]SQ[αMeL]LDKK([γGlu-γGlu-C18 diacid])AQ[αMe4Pal]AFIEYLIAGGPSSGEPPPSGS-NH2 [Example 968] , report its measured pEC50.
### Response 10.03

### Prompt Given the entry H-Y[Aib]QGTFTSDFS[Orn][αMeL]LDKK([AEEA-γGlu-C18 diacid])AQ[Aib]AFIEYLLE[Aib]GESSGAPPPSGS-NH2 [Example 240] , report its measured pEC50.
### Response 9.67

---

# EC50 annotations
- Assay system: hGcgR (Homo sapiens)
- Sequence (P47871 26-477): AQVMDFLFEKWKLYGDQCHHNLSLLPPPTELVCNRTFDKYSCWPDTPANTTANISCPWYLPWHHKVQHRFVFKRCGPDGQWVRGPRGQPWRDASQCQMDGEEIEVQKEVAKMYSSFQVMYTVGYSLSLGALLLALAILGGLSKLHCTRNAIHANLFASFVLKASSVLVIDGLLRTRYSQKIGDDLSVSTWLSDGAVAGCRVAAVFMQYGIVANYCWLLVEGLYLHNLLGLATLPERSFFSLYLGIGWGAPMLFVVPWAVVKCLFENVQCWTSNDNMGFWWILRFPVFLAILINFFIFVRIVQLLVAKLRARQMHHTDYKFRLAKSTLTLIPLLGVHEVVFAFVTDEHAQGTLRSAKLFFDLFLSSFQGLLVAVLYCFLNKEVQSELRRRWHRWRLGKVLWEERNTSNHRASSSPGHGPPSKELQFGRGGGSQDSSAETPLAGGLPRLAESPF
- Assay info: Functional cAMP activation in the presence of 0.1% casein (no HSA);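 as to Relative cAMP EC50, hGcgR: intracellular cAMP rise after 30 min at 37 °C, read by HTRF against a cAMP standard curve, scaled from buffer only (0%) to maximal control ligand response (100%)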
- Type: cell-based
- Conditions: in the presence of 0.1% casein (no HSA); geometric mean; read-out: Relative cAMP EC50, hGcgR
Starred links: 1 amine or outer side, 2 acyl side, 3 side chain; linkers in the order of their positions; H or OH if unused. Non-standard residues stand in square brackets, D forms with d. Groups on a side chain read outwards from the residue. No end group written: not given here. *: point of attachment. C20 diacid = O=C(O)CCCCCCCCCCCCCCCCCCC(=O)*; C18 diacid = O=C(O)CCCCCCCCCCCCCCCCC(=O)*; αMePhe(2-F) = C[C@](N)(Cc1ccccc1F)C(=O)O; γGlu = O=C(O)[C@H](CCC(=O)[*:2])N[*:1]; αMe4Pal = C[C@](N)(Cc1ccncc1)C(=O)O; αMeY = C[C@](N)(Cc1ccc(O)cc1)C(=O)O; αMeF = C[C@](N)(Cc1ccccc1)C(=O)O; 4Pal = N[C@@H](Cc1ccncc1)C(=O)O; αMeL = CC(C)C[C@](C)(N)C(=O)O; αMeS = C[C@](N)(CO)C(=O)O; Orn = NCCC[C@H](N)C(=O)O; AEEA = NCCOCCOCC(=O)O; Aib = CC(C)(N)C(=O)O
Return type: number; implicit unit nM.

{"Substance": "H-Y[Aib]QGTFTSDFSK[αMeL]LDKK([AEEA-γGlu-C20 diacid])AQ[Aib]AFIEYLLAGGPSSGEPPPGEG-NH2 [Example 31]", "Readout number": 8.42}
{"Substance": "H-Y[Aib]QGTFTSDYSI[αMeL]LDKIAAK([AEEA-AEEA-γGlu-C20 diacid])QFVEWLLA[Aib]GPSSGEPPPSEG-NH2 [Example 324]", "Readout number": 5.74}
{"Substance": "H-Y[Aib]QGTFTSD[4Pal]S[Orn][αMeL]LD[Orn]K([γGlu-γGlu-C18 diacid])AQ[αMe4Pal][Orn]FIEYLLAGGPSSGAPPPSGSEE-NH2 [Example 1004]", "Readout number": 2.67}
{"Substance": "Y[Aib]QGTFTSDFSK[αMeL]LDKK([AEEA-γGlu-C20 diacid])AQ[Aib]AFIEYLLEGGPSSGEPPPTEG-NH2 [Example 36]", "Readout number": 4.32}
{"Substance": "H-Y[Aib]QGTFTSD[4Pal]SQ[αMeL]LDKK([AEEA-γGlu-C18 diacid])AQ[Aib]AFIEYLLE[dA]GPSS[Aib]APPPSGT-NH2 [Example 824]", "Readout number": 7.92}

### Prompt Given the entry H-Y[Aib]QGTFTSD[4Pal]SQ[αMeL]LDKK([AEEA-γGlu-C18 diacid])AQ[αMe4Pal]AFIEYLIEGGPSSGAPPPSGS-NH2 [Example 826] , report its measured EC50.
### Response 5.59

### Prompt Given the entry H-Y[Aib]QGTFTSDYSK[αMeL]LDKK([AEEA-γGlu-C20 diacid])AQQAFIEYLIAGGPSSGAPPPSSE-NH2 [Example 322] , report its measured EC50.
### Response 5.41

### Prompt Given the entry H-Y[Aib]QGTFTSD[4Pal]SQ[αMeL]LDKK([γGlu-γGlu-C18 diacid])AQ[αMe4Pal]AFIE[αMe4Pal]LIE[Aib]GPSSGEPPPSGEEE-NH2 [Example 1124] , report its measured EC50.
### Response 6.97

### Prompt Given the entry H-Y[Aib]QGTFTSD[4Pal]SQ[αMeL]LD[Orn]K([γGlu-γGlu-C18 diacid])AQ[αMe4Pal]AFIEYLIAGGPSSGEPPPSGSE-NH2 [Example 1008] , report its measured EC50.
### Response 7.47

### Prompt Given the entry H-Y[Aib]QGTFTSDFS[Orn][αMeL]LDKK([AEEA-AEEA-γGlu-C18 diacid])AQ[Aib]AFIEYLLE[dA]GPSSG[4Pal]PPPSG[4Pal]-NH2 [Example 258] , report its measured EC50.
### Response 7.15

### Prompt Given the entry Y[Aib]QGT[αMePhe(2-F)]TSDYSKILDKIAQK([AEEA-γGlu-C20 diacid])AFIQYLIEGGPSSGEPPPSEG-NH2 [Example 354] , report its measured EC50.
### Response 7.91

### Prompt Given the entry H-Y[Aib]QGTFTSD[4Pal]SQ[αMeL]LD[Orn]K([γGlu-γGlu-C18 diacid])AQ[αMe4Pal]AFIEYLIE[dA]GPSSGAPPPSGS-NH2 [Example 1017] , report its measured EC50.
### Response 6.47

### Prompt Given the entry H-Y[Aib]QGT[αMePhe(2-F)]TSD[4Pal][αMeS]I[αMeL]LD[Orn]K([AEEA-γGlu-γGlu-C18 diacid])AQ[αMe4Pal]EFI[dE][αMeY]LIEGGPSSGEPPPSGGGE-NH2 [Example 1181] , report its measured EC50.
### Response 3.34

### Prompt Given the entry Y[Aib]QGTFTSD[4Pal]SQ[αMeL]LDKK([Glu-γGlu-C18 diacid])AQ[αMe4Pal]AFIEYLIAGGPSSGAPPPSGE-NH2 [Example 1086] , report its measured EC50.
### Response 12

### Prompt Given the entry H-Y[Aib]QGTFTSDFS[Orn][αMeL]LDKK([AEEA-γGlu-C18 diacid])AQ[Aib]AFIEYLLAGGPSSGAPPPEGE-NH2 [Example 99] , report its measured EC50.
### Response 6.09

### Prompt Given the entry H-Y[Aib]QGT[αMePhe(2-F)]TSDYSKLLDKIAQK([AEEA-γGlu-C20 diacid])AFIEYLIEGGPSSGAPPPSGE-NH2 [Example 356] , report its measured EC50.
### Response 4.76

### Prompt Given the entry H-Y[Aib]QGTFTSDFSK[αMeL]LDKK([AEEA-γGlu-C20 diacid])AQ[Aib]AFIEYLLE[Aib]GPSSGAPPPSGS-NH2 [Example 45] , report its measured EC50.
### Response 2.08

### Prompt Given the entry H-Y[Aib]QGTFTSDFS[Orn][αMeL]LDKK([AEEA-AEEA-γGlu-C18 diacid])AQ[Aib]AFIEYLLE[dA]GPSSGHPPPSG[4Pal]-NH2 [Example 256] , report its measured EC50.
### Response 5.71

### Prompt Given the entry H-Y[Aib]QGTFTSDFS[Orn][αMeL]LDKK([AEEA-γGlu-C18 diacid])AQ[Aib]AFIEYLLE[dA]GHSSGAPPPSGE-NH2 [Example 207] , report its measured EC50.
### Response 4.24

### Prompt Given the entry H-Y[Aib]QGT[αMeF]TSD[4Pal][αMeS]I[αMeL]LD[Orn]K([AEEA-γGlu-C18 diacid])AQ[αMe4Pal]EFI[dE][αMeY]LIEGGPSSGAPPPSGE-NH2 [Example 1164] , report its measured EC50.
### Response 2.83

### Prompt Given the entry H-Y[Aib]QGTFTSDFSK[αMeL]LDKK([AEEA-γGlu-C20 diacid])AQ[Aib]AFIEYLLEGAPSSGAPPPSEG-NH2 [Example 47] , report its measured EC50.
### Response 5.61

### Prompt Given the entry H-Y[Aib]QGTFTSD[4Pal]S[Orn][αMeL]LDKK([AEEA-γGlu-C18 diacid])AQ[αMe4Pal]AFIE[αMe4Pal]LIEGGPSSGAPPPSGSEE-NH2 [Example 955] , report its measured EC50.
### Response 2.65

### Prompt Given the entry H-Y[Aib]QGTFTSD[4Pal]S[Orn][αMeL]LD[Orn]K([γGlu-γGlu-C18 diacid])AQ[αMe4Pal]AFIEYLIAGGPSSGEPPPSGTE-NH2 [Example 984] , report its measured EC50.
### Response 4.5
